# Test system: SNB-75 CNS
# procedure-details: NCI tumour cell line growth inhibition, 48 h
Parameter threshold = 5 µM. Response is Y when TGI meets or exceeds it, else N.

[
  {
    "compound": "O=C1CCc2c(sc3[nH]c(=S)n(Cc4ccccc4)c(=O)c23)C1",
    "assigned-class": "Y"
  },
  {
    "compound": "OC(c1ccccn1)C1CNc2ccccc21 (stereo not given)",
    "assigned-class": "Y"
  },
  {
    "compound": "CN(C)c1n/c(=N/c2ncn[nH]2)ss1",
    "assigned-class": "Y"
  },
  {
    "compound": "C=CC[C@@H]1C(=O)[C@@]2(O[Si](C(C)C)(C(C)C)C(C)C)CC[C@@H]1C[C@H]2NC(=O)OCC(Cl)(Cl)Cl",
    "assigned-class": "Y"
  },
  {
    "compound": "COc1cc2cc(C(=O)N3CC(CCl)c4ccccc43)[nH]c2c(OC)c1OC (stereo not given)",
    "assigned-class": "Y"
  },
  {
    "compound": "CSc1ccc(/C=C/c2ccnc3ccccc23)cc1",
    "assigned-class": "Y"
  },
  {
    "compound": "CCCSC1=NC2C(N(CC)C(=O)N2CC)N1/N=C/C=C/c1ccccc1[N+](=O)[O-] (stereo not given)",
    "assigned-class": "Y"
  },
  {
    "compound": "COc1c(O)c2c(=O)cc(OC)c3c4c(OC)cc(=O)c5c(O)c(OC)c6c(c(c1C(C(C)=O)C6C(C)O)c23)c54 (stereo not given)",
    "assigned-class": "N"
  },
  {
    "compound": "C=CCN1C(=O)CS/C1=N/NC(=O)C(O)(c1ccccc1)c1ccccc1",
    "assigned-class": "Y"
  },
  {
    "compound": "COc1ccc(/C=C2\\N=C(NN)N=C2Cl)cc1",
    "assigned-class": "Y"
  },
  {
    "compound": "O=C(c1ccccc1)c1nc2ccc(C(F)(F)F)cc2[n+]([O-])c1C(F)(F)F",
    "assigned-class": "Y"
  },
  {
    "compound": "NNc1[nH]c(=S)[nH]c1C(N)=O",
    "assigned-class": "Y"
  },
  {
    "compound": "NC(=O)NC(=O)c1cccc(NC(=O)CBr)c1",
    "assigned-class": "N"
  },
  {
    "compound": "COc1ccc(CNc2nc3c(NC(C)=O)cc(C(F)(F)F)cc3nc2-c2ccccc2)cc1OC",
    "assigned-class": "N"
  },
  {
    "compound": "COc1cc([C@@H]2c3cc4c(cc3[C@@H](NC(=O)c3cccc(F)c3)C3COC(=O)[C@@H]32)OCO4)cc(OC)c1O (stereo not given in full)",
    "assigned-class": "Y"
  }
]
